test system: live bait worms; assay: Coloring and viability of live bait worms kept in peat loam medium mixed with colorant (8 oz cup, 12 worms); assay type: in vivo; settings: powdered colorant in peat loam, 8 oz cup, 12 worms; inspected at 24 hrs, 36 hrs, 3-4 weeks
VALUE_KIND: Worm viability / mortality

COMPOUND	RESULT
O=C1/C(=C2\Nc3ccc(S(=O)(=O)[O-])cc3C2=O)Nc2ccc(S(=O)(=O)[O-])cc21.[Na+].[Na+] [FD & C Blue 2]	remain viable
O=S(=O)([O-])c1ccc(N=Nc2c(O)ccc3cc(S(=O)(=O)[O-])ccc23)cc1.[Na+].[Na+] [FD & C Yellow 6]	remain viable
COc1cc(S(=O)(=O)[O-])c(C)cc1N=Nc1c(O)ccc2cc(S(=O)(=O)[O-])ccc12.[Na+].[Na+] [FD & C Red 40]	remain viable
